- study.target: Porcine pancreatic α-amylase (Sus scrofa)
- Sequence (P00690 16-511): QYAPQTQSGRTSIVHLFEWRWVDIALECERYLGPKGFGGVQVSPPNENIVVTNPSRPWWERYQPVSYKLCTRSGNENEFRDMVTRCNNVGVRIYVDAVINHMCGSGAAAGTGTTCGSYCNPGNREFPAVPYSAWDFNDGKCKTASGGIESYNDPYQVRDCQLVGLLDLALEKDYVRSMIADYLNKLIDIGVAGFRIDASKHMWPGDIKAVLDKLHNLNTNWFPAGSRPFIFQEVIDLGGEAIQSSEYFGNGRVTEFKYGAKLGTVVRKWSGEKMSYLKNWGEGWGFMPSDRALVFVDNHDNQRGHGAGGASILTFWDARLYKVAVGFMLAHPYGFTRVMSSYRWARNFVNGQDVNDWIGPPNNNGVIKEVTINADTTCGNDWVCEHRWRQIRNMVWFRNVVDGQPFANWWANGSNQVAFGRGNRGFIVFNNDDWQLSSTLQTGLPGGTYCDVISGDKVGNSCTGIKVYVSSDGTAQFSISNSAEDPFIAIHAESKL
pIC50: −log10 of the molar value.
test.readout: pIC50

Here are 3 compounds together with their reported answers.
Noted for O=C(O)CC(OC(=O)/C=C/c1ccc(O)c(O)c1)C(=O)O (stereo not shown) : its pIC50 reads < 2.87

Noted for Oc1cc(O)c2c(c1)O[C@H](c1ccc(O)c(O)c1)[C@H](O)[C@H]2c1c(O)cc(O)c2c1O[C@H](c1ccc(O)c(O)c1)[C@H](O)C2 : its pIC50 reads < 3.46

Noted for O=c1c(O[C@@H]2O[C@H](CO)[C@H](O)[C@H](O)[C@H]2O)c(-c2ccc(O)c(O)c2)oc2cc(O)cc(O)c12 [HP, hyperoside] : its pIC50 reads < 3.06

In the following, a different compound is considered.
Noted for Oc1cc(O)c2c(c1)O[C@H](c1ccc(O)c(O)c1)[C@H](O)C2 [ECA, (–)-epicatechin] : its pIC50 reads < 3.16
